System: LS174T
protocol.summary: Antiproliferative activity against human LS174T cells after 72 hrs by phosphatase assay
Assay type: functional, cell-based
reported.metric: IC50 (nM)
Express the result in nM but write the number alone.

| structure | output.unit | IC50 |
| --- | --- | --- |
| CC[C@]1(NC(=O)c2ccc(C)c(C)c2)C[C@H]2CN(CCc3c([nH]c4ccccc34)[C@@](C(=O)OC)(c3cc4c(cc3OC)N(C)[C@H]3[C@@](O)(C(=O)OC)[C@H](OC(C)=O)[C@]5(CC)C=CCN6CC[C@]43[C@@H]65)C2)C1 | nM | 6.1 |

Pending compound:
Look up and report measured IC50 for this entry: CC[C@]1(O)C[C@@H]2CN(CCc3c([nH]c4ccccc34)[C@@](C(=O)OC)(c3cc4c(cc3OC)N(C)[C@H]3[C@@](O)(C(=O)OC)[C@H](OC(C)=O)[C@]5(CC)C=CCN6CC[C@]43[C@@H]65)C2)C1
20

====

protocol.summary: Cytotoxicity against human HCT116/VM46 cells assessed as reduction in cell viability after 72 hrs by phosphatase assay
Assay type: cell-based
run.parameters: HCT-116/VM46, 72 h
Reported values of IC50 for individual entries
The figure you give is taken to be in nM; do not add the unit.

State its IC50: CC[C@]1(NC(=O)c2ccccc2C)C[C@H]2CN(CCc3c([nH]c4ccccc34)[C@@](C(=O)OC)(c3cc4c(cc3OC)N(C)[C@H]3[C@@](O)(C(=O)OC)[C@H](OC(C)=O)[C@]5(CC)C=CCN6CC[C@]43[C@@H]65)C2)C1
540

Read off the recorded IC50 for CC[C@]1(NC(=O)c2ccc3c(c2)CCCC3)C[C@H]2CN(CCc3c([nH]c4ccc(F)cc34)[C@@](C(=O)OC)(c3cc4c(cc3OC)N(C)[C@H]3[C@@](O)(C(=O)OC)[C@H](OC(C)=O)[C@]5(CC)C=CCN6CC[C@]43[C@@H]65)C2)C1
19

====

protocol.summary: Cytotoxicity against human HCT116/VM46 cells assessed as reduction in cell viability after 72 hrs by phosphatase assay
Format: cell-based
run.parameters: HCT-116/VM46, 72 h
reported.metric: log10 of IC50 (log10 of the value in nM)
Quick note: numbers are log10 of IC50, with nM as the unit.

| structure | reported.metric | measurement |
| --- | --- | --- |
| C=CC(=O)N[C@@]1(CC)C[C@H]2CN(CCc3c([nH]c4ccccc34)[C@@](C(=O)OC)(c3cc4c(cc3OC)N(C)[C@H]3[C@@](O)(C(=O)OC)[C@H](OC(C)=O)[C@]5(CC)C=CCN6CC[C@]43[C@@H]65)C2)C1 | log10 of IC50 | 2.72 |
| CC[C@]1(NC(=O)c2ccc(OC(C)(C)C)cc2)C[C@H]2CN(CCc3c([nH]c4ccccc34)[C@@](C(=O)OC)(c3cc4c(cc3OC)N(C)[C@H]3[C@@](O)(C(=O)OC)[C@H](OC(C)=O)[C@]5(CC)C=CCN6CC[C@]43[C@@H]65)C2)C1 | log10 of IC50 | 0.83 |
| CC[C@]1(NC(=O)c2ccoc2)C[C@H]2CN(CCc3c([nH]c4ccccc34)[C@@](C(=O)OC)(c3cc4c(cc3OC)N(C)[C@H]3[C@@](O)(C(=O)OC)[C@H](OC(C)=O)[C@]5(CC)C=CCN6CC[C@]43[C@@H]65)C2)C1 | log10 of IC50 | 0.80 |
| CC[C@]1(NC(=O)c2ccc3cccc(OC)c3c2)C[C@H]2CN(CCc3c([nH]c4ccccc34)[C@@](C(=O)OC)(c3cc4c(cc3OC)N(C)[C@H]3[C@@](O)(C(=O)OC)[C@H](OC(C)=O)[C@]5(CC)C=CCN6CC[C@]43[C@@H]65)C2)C1 | log10 of IC50 | 1.85 |
| CC[C@@H]1C[C@H]2CN(CCc3c([nH]c4ccccc34)[C@@](C(=O)OC)(c3cc4c(cc3OC)N(C)[C@H]3[C@@](O)(C(=O)OC)[C@H](OC(C)=O)[C@]5(CC)C=CCN6CC[C@]43[C@@H]65)C2)C1 | log10 of IC50 | 2.78 |

Provide measured log10 of IC50 value, entry: CC[C@]1(NC(=O)c2ccc3cc(NC(=O)OC(C)(C)C)ccc3c2)C[C@H]2CN(CCc3c([nH]c4ccccc34)[C@@](C(=O)OC)(c3cc4c(cc3OC)N(C)[C@H]3[C@@](O)(C(=O)OC)[C@H](OC(C)=O)[C@]5(CC)C=CCN6CC[C@]43[C@@H]65)C2)C1
1.78
